Structures can show the parent of a compound that is named as a salt.
assay metric: melting point

In [3]: df
Out[3]:
                                    molecule         result
 0  CCC(CC)(NC(=O)c1cnn2c1NC(c1ccccc1)CC2(C)C)c1ccc(Cl)c(Cl)c1 (stereo not drawn)  156 to 157 °C
 1  CCC(CC)(NC(=O)c1cnn2c1NC(c1ccccc1)CC21CCCCC1)c1ccc(C(F)(F)F)cc1 (stereo not drawn)  274 to 275 °C
 2  CCC1(CC)C[C@@H](OC)CN1C(=O)c1cnn2c1N[C@@H](c1ccccc1)CC2(C)C  148 to 150 °C
 3  O=C(NC1C2CC3CC(C2)CC1C3)c1cnn2c1NC(c1ccc3ccccc3c1)CC2C(F)(F)F (stereo not drawn)  280 to 282 °C
 4  CCC(CC)(NC(=O)c1cnn2c1NC(c1ccccc1O)CC2(C)C)c1ccc(C(F)(F)F)cc1 (stereo not drawn)  122 to 124 °C
 5  CCC(CC)(NC(=O)c1c(C)nn2c1NC(c1ccccc1)CC2(C)C)c1ccc(Br)cc1 (stereo not drawn) (as salt: HCl)  185 to 187 °C
 6  CCC(CC)(NC(=O)c1c(C)nn2c1NC(c1cccc(OC)c1)CC2(C)C)c1ccc(C)cc1 (stereo not drawn) (as salt: HCl)         146 °C
 7  Cc1ccc(-n2cc3c(n2)CCN(C(=O)c2cnn4c2NC(c2ccccc2)CC4C(F)(F)F)C3)cc1 (stereo not drawn)  167 to 168 °C
 8  CCC1(NC(=O)c2cnn3c2NC(c2ccccc2)CC3(C)C)CCOCC1 (stereo not drawn)  104 to 105 °C
 9  CCC(CC)(NC(=O)c1c(C)nn2c1NC(c1ccccc1)CC2(C)C)c1ccc(C(C)O)cc1 (stereo not drawn)  165 to 166 °C
10  CCC1(CC)C[C@@H](OCc2ccccc2)CN1C(=O)c1cnn2c1N[C@H](c1ccccc1)CC2(C)C  172 to 174 °C
11  CCC(CC)(NC(=O)c1c(C)nn2c1NC(c1ccc(F)cc1)CC2(C)C)c1ccc(C)cc1 (stereo not drawn) (as salt: HCl)  166 to 169 °C
12  CCCC(=O)Oc1ccc(C(CC)(CC)NC(=O)c2cnn3c2NC(c2ccccc2)CC3(C)C)cc1 (stereo not drawn)  148 to 149 °C
13  CCC(CC)(NC(=O)c1cnn2c1NC(c1ccccc1)CC2(C)C)c1ccc(Cl)nc1 (stereo not drawn)  223 to 224 °C
14  CCC(CC)(NC(=O)c1c(C)nn2c1NC(c1ccccc1Cl)CC2(C)C)c1ccc(C)cc1 (stereo not drawn) (as salt: HCl)  173 to 174 °C

====

Entries annotated with measured melting point
Structures can show the parent of a compound that is named as a salt.
assay metric: melting point

In [3]: df
Out[3]:
                                    molecule             result
 0  CCC(CC)(NC(=O)c1cnn2c1NC(c1ncc(C)s1)CC2(C)C)c1ccc(F)cc1 (stereo not drawn) [Example 602]  163.5 to 163.6 °C
 1  CCC(CC)(NC(=O)c1c(C)nn2c1NC(c1ccccc1)CC2(C)C)c1ccc(Cl)cc1 (stereo not drawn) [Example 696]      146 to 148 °C
 2  CC(C)(NC(=O)c1cnn2c1NC(c1ccccc1)CC2(C)C)c1ccc(C(F)(F)F)cc1 (stereo not drawn) [Example 427]      182 to 183 °C
 3  CCCOC(=O)c1ccc(C(CC)(CC)NC(=O)c2cnn3c2NC(c2ccccc2)CC3(C)C)cc1 (stereo not drawn) [Example 762]      162 to 163 °C
 4  CCC(CC)(NC(=O)c1c(C)nn2c1NC(c1ccccc1OC)CC2(C)C)c1ccc(C)cc1 (stereo not drawn) (as salt: HCl) [Example 965]      162 to 163 °C
 5  CCC(C)(CC)NC(=O)c1cnn2c1NC(c1ccccc1)CC2(C)C (stereo not drawn) [Example 618]        88 to 89 °C
 6  CCC(CC)(NC(=O)c1cnn2c1NC(c1ccc(OC)cc1)CC2(C)C)c1ccc(C)cc1 (stereo not drawn) (as salt: HCl) [Example 960]      188 to 189 °C
 7  CCC(CC)(NC(=O)c1c(C)nn2c1NC(c1cccs1)CC2(C)C)c1ccc(C)cc1 (stereo not drawn) (as salt: HCl) [Example 956]      149 to 150 °C
 8  CCC(CC)(NC(=O)c1cnn2c1NC(c1ccco1)CC2(C)C)c1ccc(C(F)(F)F)cc1 (stereo not drawn) [Example 693]      212 to 214 °C
 9  O=C(NCc1ccc(-c2csnn2)cc1)c1cnn2c1NC(c1ccccc1)CC2C(F)(F)F (stereo not drawn) [Example 278]      205 to 206 °C
10  CC(C)[C@H]1CC[C@H](C)CC1OC(=O)c1cnn2c1NC(c1ccccc1)CC2(C)C (stereo partly drawn) [Example 1140]      123 to 124 °C
11  CCC(CC)(NC(=O)c1c(C)nn2c1N[C@@H](c1ccccc1)CC2(C)C)c1ccccc1F (as salt: HCl) [Example 1063]      180 to 182 °C
12  CCC(NC(=O)c1cnn2c1NC(c1ccccc1)CC2C(F)(F)F)c1ccccc1C (stereo not drawn) [Example 399]      225 to 226 °C
13  CCC(CC)(NC(=O)c1cnn2c1NC(c1ccccc1)C1CCCCC12)c1ccc(C(F)(F)F)cc1 (stereo not drawn) [Example 201]      213 to 214 °C
14  CC1(C)CC(c2ccccc2)Nc2c(C(=O)N(Cc3ccc(C(F)(F)F)cc3)Cc3ccc(C(F)(F)F)cc3)cnn21 (stereo not drawn) [Example 409]      164 to 165 °C

// provenance: patent US9447100B2
